Entries and their measured Change in cAMP Content from Control (mean + SEM) follow.
- study target: human recombinant A1 adenosine receptors (Homo sapiens)
- Construct: expressed in transfected cells; host or cells: Chinese hamster ovary (CHO) cells, CHO:huA1, G-418 selected
- assay name: Allosteric enhancement: reduction of cAMP content of CHO:huA1 cells (radioimmunoassay)
- Format: cell-based
- particulars: 10 μM test compound, forskolin 1 μM, rolipram 20 μM, CPA 0.01 nM, adenosine deaminase, 6 min at 36° C.
Reply with the number and its unit after it.

Some solved entries appear below for comparison.
- molecule: "Cc1sc(N)c(C(=O)c2cccc(C(F)(F)F)c2)c1C [PD 81,723, reference compound]"
  reported measurement: "−50 ± 1%"
- molecule: "Nc1sc2c(c1C(=O)c1cccs1)CCCC2"
  reported measurement: "−40 ± 2%"
- molecule: "Nc1sc2c(c1C(=O)c1ccc(Cl)c3ccccc13)CCC2"
  reported measurement: "−55 ± 2%"
- molecule: "Nc1sc2c(c1C(=O)c1ccccn1)CCC2"
  reported measurement: "2 ± 7%"
- molecule: "COc1ccc(C(=O)c2c(N)sc3c2CCC3)c2ccccc12"
  reported measurement: "−35 ± 3%"

Let us examine a further case.
(Q) What Change in cAMP Content from Control (mean + SEM) appears in the records for this molecule with human recombinant A1 adenosine receptors (Homo sapiens)? COc1ccc(C(=O)c2c(N)sc3c2CCCC3)c2ccccc12
(A) −17 ± 1%

----------
- study target: human recombinant A1 adenosine receptors (Homo sapiens, UniProt P30542)
- Construct: expressed in transfected cells; host or cells: Chinese hamster ovary (CHO) cells, CHO:huA1, G-418 selected
- Sequence (P30542 whole entry): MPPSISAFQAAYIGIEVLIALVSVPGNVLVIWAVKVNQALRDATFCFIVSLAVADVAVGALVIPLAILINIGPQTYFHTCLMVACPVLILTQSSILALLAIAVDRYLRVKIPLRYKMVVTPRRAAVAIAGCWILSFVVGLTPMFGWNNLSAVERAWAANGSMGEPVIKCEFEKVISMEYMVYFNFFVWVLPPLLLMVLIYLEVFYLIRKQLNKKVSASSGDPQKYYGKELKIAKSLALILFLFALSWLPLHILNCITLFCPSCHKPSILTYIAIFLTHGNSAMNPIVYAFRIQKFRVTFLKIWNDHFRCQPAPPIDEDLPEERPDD
- assay name: Allosteric enhancement: reduction of cAMP content of CHO:huA1 cells (radioimmunoassay)
- Assay type: cell-based
- particulars: 0.1 μM test compound, forskolin 1 μM, rolipram 20 μM, CPA 0.01 nM, adenosine deaminase, 6 min at 36° C.
- Procedure: Chinese hamster ovary cells expressing human recombinant A1 adenosine receptors (CHO:huA1 cells) at a density of approximately 8000 fmol/mg protein were prepared as previously described (Kollias-Baker et al., (1997), J. Pharmacol. Exp. Ther. 281: 761–768) and aliquots of the cells at low passage numbers were frozen and stored in liquid nitrogen. […]
quantity name: Change in cAMP Content from Control (mean + SEM) (%)
Quick note: give the figure in %, leave out the unit.

(Q) // Change in cAMP Content from Control (mean + SEM) lookup, key: Nc1sc2c(c1C(=O)c1ccccn1)CCC2
(A) 0.8

(Q) What does the data say about its Change in cAMP Content from Control (mean + SEM)? Entry: Nc1sc2c(c1C(=O)c1cccs1)CCCC2
(A) −11

----------
- study target: human recombinant A1 adenosine receptors (Homo sapiens, UniProt P30542)
- Construct: expressed in transfected cells; host or cells: Chinese hamster ovary (CHO) cells, CHO:huA1, G-418 selected
- assay name: Allosteric enhancement: reduction of cAMP content of CHO:huA1 cells (radioimmunoassay)
- Type: cell-based
- particulars: 0.1 h, 0.01 μM test compound, forskolin 1 μM, rolipram 20 μM, CPA 0.01 nM, adenosine deaminase, 6 min at 36° C., read-out: Change in cAMP Content from Control (mean + SEM)
quantity name: inhibition at 0.01 µM (%)
Express the result in % but write the number alone.

(Q) Any idea what inhibition at 0.01 µM was measured for Nc1sc2c(c1C(=O)c1ccco1)CCCC2 [Example 4] ?
(A) 10

(Q) Bench note: what inhibition at 0.01 µM did Nc1sc2c(c1C(=O)c1ccc(Br)c3ccccc13)CCC2 [Example 22] show?
(A) -3

(Q) Item under review: Nc1sc2c(c1C(=O)c1cc3ccccc3o1)CCC2 [Example 15] . Reported inhibition at 0.01 µM?
(A) 5

(Q) Would you kindly share the measured inhibition at 0.01 µM for Nc1sc2c(c1C(=O)c1ccc(Cl)c3ccccc13)CCCC2 [Example 28] ?
(A) 11

(Q) Can you share its inhibition at 0.01 µM? I mean this compound: Nc1sc2c(c1C(=O)c1ccco1)CCN(Cc1ccccc1)C2 [Example 12]
(A) 27

(Q) Which inhibition at 0.01 µM is reported for this compound? Nc1sc2c(c1C(=O)c1ccccn1)CCCC2 [Example 19]
(A) 2

(Q) Form field: reported inhibition at 0.01 µM of Nc1sc2c(c1C(=O)c1ccc(I)c3ccccc13)CCC2 [Example 24]
(A) 6

(Q) Endpoint output: inhibition at 0.01 µM of Nc1sc2c(c1C(=O)c1ccc(Cl)cc1)CCSC2 [Example 2] . Value?
(A) -15

(Q) I'd like to know its inhibition at 0.01 µM. The compound in question is Nc1sc2c(c1C(=O)c1cc3ccccc3o1)CCN(Cc1ccccc1)C2 [Example 16]
(A) -4

(Q) Request the reported inhibition at 0.01 µM associated with Nc1sc2c(c1C(=O)c1ccc3ccccc3c1)CCN(Cc1ccccc1)C2 [Example 32]
(A) 11

----------
- study target: human recombinant A1 adenosine receptors (Homo sapiens, UniProt P30542)
- Construct: expressed in transfected cells; host or cells: Chinese hamster ovary (CHO) cells, CHO:huA1, G-418 selected
- assay name: Allosteric enhancement: reduction of cAMP content of CHO:huA1 cells (radioimmunoassay)
- Type: cell-based
- particulars: 0.01 μM test compound, forskolin 1 μM, rolipram 20 μM, CPA 0.01 nM, adenosine deaminase, 6 min at 36° C.
quantity name: Change in cAMP Content from Control (mean + SEM) (%)
Please give a number only; it is taken to be in %.

- molecule: "Cc1sc(N)c(C(=O)c2cccc(C(F)(F)F)c2)c1C [PD 81,723, reference compound]"
  reported measurement: "−1"
- molecule: "COc1ccc(C(=O)c2c(N)sc3c2CCC3)c2ccccc12 [Example 23]"
  reported measurement: "−6"
- molecule: "Nc1sc2c(c1C(=O)c1cccs1)CCCC2 [Example 5]"
  reported measurement: "−11"
- molecule: "Nc1sc2c(c1C(=O)c1ccccn1)CCC2 [Example 17]"
  reported measurement: "−3"
- molecule: "Nc1sc2c(c1C(=O)c1ccc(Cl)c3ccccc13)CCC2 [Example 25]"
  reported measurement: "−10"

Turning now to a further record.
(Q) Name the reported Change in cAMP Content from Control (mean + SEM) value associated with the molecule COc1ccc(C(=O)c2c(N)sc3c2CCCC3)c2ccccc12 [Example 27]
(A) 5

----------
Entries annotated with measured inhibition at 1 µM
- study target: human recombinant A1 adenosine receptors (Homo sapiens, UniProt P30542)
- Construct: expressed in transfected cells; host or cells: Chinese hamster ovary (CHO) cells, CHO:huA1, G-418 selected
- assay name: Allosteric enhancement: reduction of cAMP content of CHO:huA1 cells (radioimmunoassay)
- Type: cell-based
- particulars: 0.1 h, 1 μM test compound, forskolin 1 μM, rolipram 20 μM, CPA 0.01 nM, adenosine deaminase, 6 min at 36° C., read-out: Change in cAMP Content from Control (mean + SEM)

- smiles entry: "Nc1sc2c(c1C(=O)c1ccc3ccccc3c1)CCC2"
  study target: "human recombinant A1 adenosine receptors (Homo sapiens, UniProt P30542)"
  reported measurement: "15%"
- smiles entry: "Nc1sc2c(c1C(=O)c1cc3ccccc3o1)CCCC2"
  study target: "human recombinant A1 adenosine receptors (Homo sapiens, UniProt P30542)"
  reported measurement: "4%"
- smiles entry: "Nc1sc2c(c1C(=O)c1ccc(I)c3ccccc13)CCC2"
  study target: "human recombinant A1 adenosine receptors (Homo sapiens, UniProt P30542)"
  reported measurement: "22%"
- smiles entry: "CC(=O)Nc1sc2c(c1C(=O)c1ccco1)CCCC2"
  study target: "human recombinant A1 adenosine receptors (Homo sapiens, UniProt P30542)"
  reported measurement: "25%"

Now, please, on to the next compound.
(Q) Which inhibition at 1 µM value is on record for Cc1sc(N)c(C(=O)c2ccccn2)c1C ?
(A) -4%

----------
Parameter inhibition at 1 µM: see the listing below.
- study target: human recombinant A1 adenosine receptors (Homo sapiens)
- Construct: expressed in transfected cells; host or cells: Chinese hamster ovary (CHO) cells, CHO:huA1, G-418 selected
- assay name: Allosteric enhancement: reduction of cAMP content of CHO:huA1 cells (radioimmunoassay)
- Format: cell-based
- particulars: 0.1 h, 1 μM test compound, forskolin 1 μM, rolipram 20 μM, CPA 0.01 nM, adenosine deaminase, 6 min at 36° C., read-out: Change in cAMP Content from Control (mean + SEM)
Write the value in % as a bare number.

Consider the worked cases shown below.
- smiles entry: "Nc1sc2c(c1C(=O)c1ccccc1)CCSC2"
  inhibition at 1 µM (%): 15
- smiles entry: "Nc1sc2c(c1C(=O)c1ccc(Cl)cc1)CCSC2"
  inhibition at 1 µM (%): -16

(Q) Given the compound Nc1sc2c(c1C(=O)c1ccco1)CCN(Cc1ccccc1)C2 , what is its reported inhibition at 1 µM?
(A) 15

(Q) Look at this compound and give its reported inhibition at 1 µM. Nc1sc2c(c1C(=O)c1cc3ccccc3o1)CCC2
(A) -3

(Q) Give the measured inhibition at 1 µM of Nc1sc2c(c1C(=O)c1ccco1)CCC2 .
(A) 0.8

(Q) Which inhibition at 1 µM is reported for this compound? Nc1sc2c(c1C(=O)c1cc3ccccc3o1)CCN(Cc1ccccc1)C2
(A) 10

(Q) Please give the measured inhibition at 1 µM for this compound: Nc1sc2c(c1C(=O)c1ccc(Br)c3ccccc13)CCC2
(A) 14

(Q) Sample Nc1sc2c(c1C(=O)c1ccccn1)CCN(Cc1ccccc1)C2 — what was its inhibition at 1 µM?
(A) -0.1

(Q) // query inhibition at 1 µM value for entry Nc1sc2c(c1C(=O)c1ccc(Cl)c3ccccc13)CCCC2
(A) 25

(Q) I would be grateful if you could share the reported inhibition at 1 µM for Cc1sc(N)c(C(=O)c2ccc3ccccc3c2)c1C .
(A) 8
